Source of measurements: patent US10316021B2

target: human kappa opioid receptor (hKOR) (Homo sapiens, UniProt P41145); construct: expressed in transfected cells; host or cells: CHO cells; assay: Kappa radioligand binding assay ([3H]diprenorphine, CHO cell membranes); settings: Table 19; geometric mean of 2-6 determinations unless otherwise indicated (Example 3: >=7); read-out: hKOR binding assay Ki
Sequence (P41145 whole entry): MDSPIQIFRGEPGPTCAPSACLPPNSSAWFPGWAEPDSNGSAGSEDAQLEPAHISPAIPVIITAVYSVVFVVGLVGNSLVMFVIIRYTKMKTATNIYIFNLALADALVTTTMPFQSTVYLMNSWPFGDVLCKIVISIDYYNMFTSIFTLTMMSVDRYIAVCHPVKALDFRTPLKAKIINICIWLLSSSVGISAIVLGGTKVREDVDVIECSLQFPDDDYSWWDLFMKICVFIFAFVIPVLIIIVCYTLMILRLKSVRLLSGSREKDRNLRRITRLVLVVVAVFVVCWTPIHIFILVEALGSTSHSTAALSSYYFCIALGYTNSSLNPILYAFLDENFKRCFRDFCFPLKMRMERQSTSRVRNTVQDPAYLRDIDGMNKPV
REPORTED_ENDPOINT: Ki (nM)

(1) Cc1nn(C)cc1C1CC(F)CN1Cc1ccc(Oc2ccc(C(N)=O)cc2)cc1 (single isomer, unassigned) [Example 26]
(2) COc1nn(C)cc1C1CC(C)CN1Cc1ccc(Oc2ccc(C(N)=O)cc2F)cc1 (single isomer, unassigned) [Example 31]
(3) Cc1nn(C)cc1C1CCCN1Cc1ccc(Oc2ccc(C(N)=O)c(O)c2)cc1 (single isomer, unassigned; (-)) [Example 18]
Ask: List by increasing Ki. # list labels per requested ordering
Result: 3, 2, 1
(3: 1.76 nM, 2: 4.99 nM, 1: 10.5 nM)

---

molecular target: human mu opioid receptor (hMOR) (Homo sapiens); construct: expressed in transfected cells; host or cells: CHO cells; test: Mu radioligand binding assay ([3H]diprenorphine, CHO cell membranes); settings: Table 20; radioligand binding; read-out: hMOR binding assay Ki
pKi: −log10 of the molar value.
REPORTED_ENDPOINT: pKi

Answered cases to consult:
>>> result_number("Cc1cnn(C)c1C1CCCN1Cc1ccc(Oc2ccc(C(N)=O)cc2F)cc1 (centres unmarked) [Example 43]")
7.25
>>> result_number("COc1nn(C)cc1C1CCCN1Cc1ccc(Oc2ccc(C(N)=O)cc2F)cc1 (single isomer, unassigned; (-)) [Example 8]")
7.00
>>> result_number("NC(=O)c1ccc(Oc2ccc(CN3CCC[C@H]3c3cccc(F)c3)cc2)c(F)c1 [Comparator F]")
7.43

(a) Cc1cc(C2CCCN2Cc2ccc(Oc3ccc(C(N)=O)cc3F)cc2)nn1C (centres unmarked) [Example 44]
(b) COc1cc(C2CCCN2Cc2ccc(Oc3ccc(C(N)=O)cc3)cc2)n(C)n1 (single isomer, unassigned) [Example 46]
Ask: Pick the one with the larger pKi: a vs b Select an item and report its label.
Result: b

(P) Cc1cc([C@@H]2CCCN2Cc2ccc(Oc3ccc(C(N)=O)cc3F)cc2)n(C)n1 [Example 45]
(Q) Cc1nn(C)c(C)c1C1CCCN1Cc1ccc(Oc2ccc(C(N)=O)cc2F)cc1 (racemic) [Example 37]
Ask: Please indicate which has the smaller reported pKi: P , or Q . Write the label of whichever entry you select.
Result: P
(P: 6.97, Q: 7.90)

---

target: human mu opioid receptor (hMOR) (Homo sapiens, UniProt P35372); construct: expressed in transfected cells; host or cells: CHO cells; assay: Mu radioligand binding assay ([3H]diprenorphine, CHO cell membranes); conditions: Table 19; geometric mean of 2-6 determinations unless otherwise indicated (Example 3: >=7); read-out: hMOR binding assay Ki
Sequence (P35372 whole entry): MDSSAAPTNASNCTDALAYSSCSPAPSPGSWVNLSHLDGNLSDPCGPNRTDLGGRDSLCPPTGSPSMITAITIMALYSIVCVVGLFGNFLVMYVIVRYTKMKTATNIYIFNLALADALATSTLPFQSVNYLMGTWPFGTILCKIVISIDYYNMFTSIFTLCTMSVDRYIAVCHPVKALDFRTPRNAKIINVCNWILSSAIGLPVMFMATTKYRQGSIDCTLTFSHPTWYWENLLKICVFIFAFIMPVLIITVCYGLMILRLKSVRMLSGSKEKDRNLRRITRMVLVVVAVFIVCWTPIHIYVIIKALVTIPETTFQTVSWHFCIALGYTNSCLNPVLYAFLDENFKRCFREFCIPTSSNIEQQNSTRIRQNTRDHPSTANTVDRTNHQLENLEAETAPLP
REPORTED_ENDPOINT: Ki (nM)

Some molecules with recorded Ki:
>>> result_number("COc1nn(C)cc1C1CCCN1Cc1ccc(Oc2ccc(C(N)=O)c(O)c2)cc1 (single isomer, unassigned) [Example 33]")
52.2
>>> result_number("COc1nn(C)cc1C1CCCN1Cc1ccc(Oc2ccc(C(N)=O)cc2F)cc1 (single isomer, unassigned; (-)) [Example 8]")
98.7

(I) COc1nn(C)cc1C1CC(F)CN1Cc1ccc(Oc2ccc(C(N)=O)cc2)cc1 (single isomer, unassigned) [Example 24]
(II) COc1nn(C)cc1C1CCCCN1Cc1ccc(Oc2ccc(C(N)=O)cc2)cc1 (single isomer, unassigned) [Example 21]
(III) COc1nn(C)cc1C1CC(C)CN1Cc1ccc(Oc2ccc(C(N)=O)cc2F)cc1 (single isomer, unassigned) [Example 28]
(IV) Cc1nn(C)nc1C1CCCN1Cc1ccc(Oc2ccc(C(N)=O)cc2)c(F)c1 (single isomer, unassigned) [Example 39]
(V) Cc1c(C2CCCN2Cc2ccc(Oc3ccc(C(N)=O)cc3)cc2)cnn1C (racemic) [Example 36]
Ask: Please list the entries, largest Ki first. Reply: labels, ordered per the request.
Result: I, III, IV, V, II

(1) COc1nn(C)cc1C1CCCN1Cc1ccc(Oc2ccc(C(N)=O)cc2F)cc1 (racemic) [Example 7]
(2) Cc1cc(C2CCCN2Cc2ccc(Oc3ccc(C(N)=O)cc3F)cc2)no1 (stereo not shown) [Example 40]
(3) Cc1nn(C)cc1C1CCCN1Cc1ccc(Oc2ccc(C(N)=O)cc2)c(F)c1 (racemic) [Example 1]
(4) Cc1cc([C@@H]2CCCN2Cc2ccc(Oc3ccc(C(N)=O)cc3F)cc2)n(C)n1 [Example 45]
(5) Cc1nn(C)cc1C1CCCN1Cc1ccc(Oc2ccc(C(N)=O)c(O)c2)cc1 (single isomer, unassigned; (-)) [Example 18]
Ask: List by increasing Ki. Give the labels in the order specified.
Result: 3, 5, 4, 1, 2

(I) Cc1cnn(C)c1C1CCCN1Cc1ccc(Oc2ccc(C(N)=O)cc2F)cc1 (stereo not shown) [Example 43]
(II) COc1nn(C)cc1C1CCCN1Cc1ccc(Oc2ccc(C(N)=O)cc2)c(F)c1 (single isomer, unassigned) [Example 32]
(III) COc1cc(C2CCCN2Cc2ccc(Oc3ccc(C(N)=O)cc3)cc2)n(C)n1 (single isomer, unassigned) [Example 46]
(IV) Cn1ccc([C@@H]2CCCN2Cc2ccc(Oc3ccc(C(N)=O)cc3F)cc2)n1 [Example 19]
Ask: List items by Ki in falling order. # the answer lists labels in the order requested
Result: II, I, III, IV
